What follows is literature data on log10(Ki) for Adenosine receptor A2a (Homo sapiens).
A difference of one corresponds to tenfold Ki; all values are log10 with Ki in nM.

Some solved entries appear below for comparison.
CCC(=O)Nc1cc(-c2ccsc2)nc(-c2ccsc2)n1; 1.80
CCn1nnc([C@H]2O[C@@H](n3cnc4c(N)nc(NC(C)Cc5ccccc5)nc43)[C@H](O)[C@@H]2O)n1 (mixture of isomers); 0.96
Nc1nc(-c2ccc(O)c(O)c2)cn2c(=O)n(-c3ccccc3)nc12; 0.72
CCOCC1CCCN1c1cc(NC(C)=O)nc(-n2nc(C)cc2C)n1 (centres undefined); 2.66

For the compound "CCOC(=O)CC[C@H](Nc1nc2nn(C)cc2c2nc(-c3ccco3)nn12)C(=O)OCC" , report log10(Ki).
3.43

For the compound "COc1ccc(-c2cc(-c3cccc(Br)c3)c(C#N)c(N)n2)cc1" , report log10(Ki).
4.58

For the compound "CC(C)(C)c1cc(C(=O)NCCOc2ccc(-c3cn4c(=O)n(-c5ccccc5)nc4c(N)n3)cc2)cc(C(C)(C)C)c1O" , report log10(Ki).
4.17

* * *

What follows is literature data on pKi for Adenosine receptor A2a (Homo sapiens, UniProt P29274).
Expect pKi as a plain number equal to -log10 of the molar concentration.

Some solved entries appear below for comparison.
Nc1nc(-c2ccc(NC(=O)c3ccc(C(=O)NO)cc3)cc2)cn2c(=O)n(-c3ccccc3)nc12; 7.44
COc1cc(-c2nc3c([nH]2)c(=O)n(C)c(=O)n3C)ccc1OCCN(C)C; 6.22
O=C(Nc1nc2ncccc2n2c(=O)n(-c3ccccc3)nc12)c1ccccc1; 5.65
O=C(Cc1ccccc1)Nc1ncc(C(=O)NCCc2ccccc2)c2nc(-c3ccco3)nn12; 7.55

Now consider the entry below.
Answer briefly: pKi recorded on Adenosine receptor A2a (Homo sapiens, UniProt P29274) for "O=C(Cc1ccccc1)Nc1nc2ccccc2n2nc(-c3ccco3)nc12"
Sequence (P29274 whole entry): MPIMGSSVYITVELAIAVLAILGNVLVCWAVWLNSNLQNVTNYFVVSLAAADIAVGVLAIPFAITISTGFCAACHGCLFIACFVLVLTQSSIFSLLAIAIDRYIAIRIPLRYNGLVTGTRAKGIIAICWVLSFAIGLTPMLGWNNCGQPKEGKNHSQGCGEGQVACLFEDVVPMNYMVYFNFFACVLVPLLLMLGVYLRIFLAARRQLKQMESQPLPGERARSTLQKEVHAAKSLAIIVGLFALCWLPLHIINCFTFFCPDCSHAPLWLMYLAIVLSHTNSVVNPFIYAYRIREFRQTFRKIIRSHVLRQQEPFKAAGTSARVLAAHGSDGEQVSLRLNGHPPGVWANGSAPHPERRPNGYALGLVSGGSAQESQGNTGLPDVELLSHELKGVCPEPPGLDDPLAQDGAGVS
6.80

* * *

What follows is literature data on Ki for Adenosine receptor A2a (Homo sapiens).
With a cut-off of 4 nM, any Ki strictly below it is called 1 (yes); any Ki meeting it or above is called 0 (no).

Record excerpt, results attached:
C=CCN1C(=O)N2CC(C)N=C2c2[nH]c(-c3cc(OC)no3)nc21 (racemic); 0 (no)
CCCn1c(=O)c2[nH]c(-c3ccc[nH]3)nc2n(CCCOC)c1=O; 0 (no)
N=C1N(Cc2ccccc2)C[C@@H]2Cc3ccccc3CN12; 0 (no)
Nc1nc(-c2ccco2)nc2sc(-c3ccco3)nc12; 1 (yes)

In the following, a different molecule is considered.
Quick check: Ki of "COc1ccccc1-c1cc(NC(C)=O)nc(-n2nc(C)cc2C)n1" under 4 nM?
1 (yes)

* * *

What follows is literature data on Ki for Adenosine receptor A2a (Homo sapiens, UniProt P29274).
Number in nM, nothing else.

Some solved entries appear below for comparison.
Cn1cc2c(nc(NCc3ccccc3)n3nc(-c4ccco4)nc23)n1; 91
CCN[C@@H]1CCN(CC(=O)Nc2cc(-n3nc(C)cc3C)nc(-c3ccc(C)o3)n2)C1; 3.8
Cn1cc2c(nc(NCCO)n3nc(-c4ccco4)nc23)n1; 157
Nc1nc(-c2cnn(Cc3ccccc3)c2)nc2c1ncn2[C@@H]1O[C@H](CO)[C@@H](O)[C@H]1O; 1.5
O=C(Nc1nc(-c2ccccc2)nc2sc(-c3ccco3)nc12)c1ccccc1; 1140

Answer briefly: Ki recorded on Adenosine receptor A2a (Homo sapiens, UniProt P29274) for "COc1cc(/C=N/Nc2ncnc3sc4c(c23)CCCC4)ccc1O"
5010

Answer briefly: Ki recorded on Adenosine receptor A2a (Homo sapiens, UniProt P29274) for "Nc1nc(-c2ccco2)c2cnn(CCc3ccccc3)c2n1"
110

Answer briefly: Ki recorded on Adenosine receptor A2a (Homo sapiens, UniProt P29274) for "Cn1cc2nc(N)n3nc(-c4ccco4)nc3c2n1"
8.1

Answer briefly: Ki recorded on Adenosine receptor A2a (Homo sapiens, UniProt P29274) for "CN(C)c1nc2ccccc2n2nc(-c3ccco3)nc12"
309

Answer briefly: Ki recorded on Adenosine receptor A2a (Homo sapiens, UniProt P29274) for "CCNC(=O)[C@H]1O[C@@H](n2cnc3c(N)nc(OCCc4c[nH]c5ccccc45)nc32)[C@H](O)[C@@H]1O"
250
